Measured z-score, listed per entry.
biological target: Homeobox protein Hox-A13 (Mus musculus) (UniProt Q62424); test: inhibitors of HoxA13-DNA binding, primary screen, biochemical, fluorescence polarization, labeled oligonucleotide (AID 1185); details: 15 min, higher = more signal, called active from +8 up or from −8 down
Sequence (Q62424 whole entry, looked up): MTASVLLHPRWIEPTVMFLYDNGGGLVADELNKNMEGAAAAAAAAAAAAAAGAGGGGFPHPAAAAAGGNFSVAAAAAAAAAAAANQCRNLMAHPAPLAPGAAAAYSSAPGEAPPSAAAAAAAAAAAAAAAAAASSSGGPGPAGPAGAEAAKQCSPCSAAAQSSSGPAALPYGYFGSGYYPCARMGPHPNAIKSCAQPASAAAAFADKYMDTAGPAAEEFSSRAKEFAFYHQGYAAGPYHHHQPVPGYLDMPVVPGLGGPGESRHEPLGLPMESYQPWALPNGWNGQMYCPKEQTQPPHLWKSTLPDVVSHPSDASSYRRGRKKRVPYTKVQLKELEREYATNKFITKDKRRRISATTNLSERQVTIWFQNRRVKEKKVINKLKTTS
observation-type: z-score

compound | observation-type | experimental-result
COC(=O)[C@H](C)NC(=O)[C@@H](C)CO | z-score | -1.61
CCCC[C@@H]1C[C@H]1[C@@H](NS(=O)(=O)c1cccc2cccnc12)c1ccc(-c2ccccc2)cc1 | z-score | -0.507
CC(=O)C[C@H](O)[C@@H](NC(=O)OC(C)(C)C)C(C)C | z-score | 0.787
N#Cc1ccc(NN2C(C(O)c3cc(C(F)(F)F)cc(C(F)(F)F)c3)C=CC3C(=O)N(c4ccccc4)C(=O)C32)cc1 (stereo not drawn) | z-score | -1.5
CCOC(=O)CCN1C(=O)[C@H]2[C@H]3[C@H](O)[C@H](O)CC(=NOC[C@@H](O)COCc4ccco4)[C@H]3CC[C@H]2C1=O | z-score | -3.71
CC(CCN1CCCCc2nc(C)c(C)cc21)=NOC(C)CN1CCCc2nc(C)c(C)cc21 (stereo not drawn) | z-score | -10.5
CN(C)C(=O)[C@@]1(Cc2ccccc2)N=C(c2ccc(OCCCO)cc2)O[C@H]1c1ccccc1CN=[N+]=[N-] | z-score | -1.69
CCOC(=O)[C@H](CC(C)C)NC(=O)CCC1CC(OC(=O)NCc2cccc3ccccc23)CC2(CCCC(COC(=O)NCCN3CCOCC3)O2)O1 (stereo partly drawn) | z-score | -4.01

Values compiled from PubChem BioAssay.
